Biological target: Hexokinase-4 (Homo sapiens, UniProt P35557)
Sequence (P35557 whole entry): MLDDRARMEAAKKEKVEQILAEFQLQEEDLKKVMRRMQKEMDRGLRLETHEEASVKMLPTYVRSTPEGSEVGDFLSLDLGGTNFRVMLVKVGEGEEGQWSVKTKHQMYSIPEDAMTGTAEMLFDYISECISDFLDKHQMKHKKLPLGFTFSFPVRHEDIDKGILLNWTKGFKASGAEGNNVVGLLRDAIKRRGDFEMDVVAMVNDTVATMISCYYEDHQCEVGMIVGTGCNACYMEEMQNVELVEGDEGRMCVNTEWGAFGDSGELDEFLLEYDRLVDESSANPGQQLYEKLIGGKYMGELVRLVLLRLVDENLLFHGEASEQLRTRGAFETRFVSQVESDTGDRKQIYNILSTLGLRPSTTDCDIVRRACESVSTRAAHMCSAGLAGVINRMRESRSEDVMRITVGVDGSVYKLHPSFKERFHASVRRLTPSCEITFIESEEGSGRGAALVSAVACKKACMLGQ
Assay: Activation of flag-tagged human recombinant liver glucokinase expressed in Escherichia coli by glucose-6-phosphate dehydrogenase coupled continuous spectrophotometric assay in presence of 2.5 mM glucose
pEC50: −log10 of the molar value.
Record 1 whenever pEC50 is at 5 or higher; record -1 when lower.

Look over these answered cases.
Cc1csc(NC(=O)c2cc(Oc3ccccc3)cc(Oc3cccc(S(C)(=O)=O)c3)c2)n1 : 1
Cc1csc(NC(=O)c2cccc(Oc3cccc(S(C)(=O)=O)c3)c2)n1 : -1
Cc1csc(NC(=O)c2cc(Oc3ccc(S(C)(=O)=O)cc3)cc(OC(C)C)c2)n1 : 1
CCOc1cc(Oc2ccccc2S(C)(=O)=O)cc(C(=O)Nc2nc(C)cs2)c1 : 1
Cc1csc(NC(=O)c2cccc(Oc3ccc(S(C)(=O)=O)cc3)c2)n1 : -1
Cc1csc(NC(=O)c2cccc(Oc3cccc(F)c3)c2)n1 : 1
Cc1csc(NC(=O)c2cc(Oc3ccccc3S(C)(=O)=O)ccc2Oc2ccccc2)n1 : -1
Cc1ccc(Oc2cccc(C(=O)Nc3nc(C)cs3)c2)cc1 : 1
CCOc1ccccc1Oc1cccc(C(=O)Nc2nc(C)cs2)c1 : 1
Cc1csc(NC(=O)c2cc(Oc3ccccc3)cc(Oc3ccccc3S(C)(=O)=O)c2)n1 : 1

Exam item: decide whether the reported pEC50 for Cc1csc(NC(=O)c2cccc(Oc3ccccc3S(C)(=O)=O)c2)n1 is at least 5.
1

Exam item: decide whether the reported pEC50 for Cc1csc(NC(=O)c2cccc(Oc3ccccc3)c2)n1 is at least 5.
-1

Exam item: decide whether the reported pEC50 for Cc1csc(NC(=O)c2cccc(Oc3ccc(F)cc3)c2)n1 is at least 5.
-1

----------
Target: Hexokinase-4 (Homo sapiens, UniProt P35557)
Assay: Activation of flag-tagged human recombinant liver glucokinase expressed in Escherichia coli by glucose-6-phosphate dehydrogenase coupled continuous spectrophotometric assay in presence of 10 mM glucose
Task for the reader: assign each of the following compounds its reported log10(EC50).
Parameter value (number): base-10 log of EC50 in nM.

Examples with answers:
Cc1csc(NC(=O)c2cc(Oc3ccccc3)cc(Oc3ccccc3S(C)(=O)=O)c2)n1 : 2.79
Cc1csc(NC(=O)c2cc(Oc3ccccc3S(C)(=O)=O)cc(OC(C)C)c2)n1 : 2.64
Cc1csc(NC(=O)c2cc(Oc3ccc(S(C)(=O)=O)cc3)cc(OC(C)C)c2)n1 : 2.11
Cc1cccc(Oc2cccc(C(=O)Nc3nc(C)cs3)c2)c1 : 3.36
Cc1csc(NC(=O)c2cccc(Oc3cccc(S(C)(=O)=O)c3)c2)n1 : 3.04
Cc1csc(NC(=O)c2cccc(Oc3ccccc3F)c2)n1 : 2.65
Cc1csc(NC(=O)c2cccc(Oc3ccccc3S(C)(=O)=O)c2)n1 : 3.04
COc1ccccc1Oc1cccc(C(=O)Nc2nc(C)cs2)c1 : 2.69
COc1cc(Oc2ccccc2S(C)(=O)=O)cc(C(=O)Nc2nc(C)cs2)c1 : 3.28
CCOc1cc(Oc2ccccc2S(C)(=O)=O)cc(C(=O)Nc2nc(C)cs2)c1 : 3.32

Hi team, please reply with log10(EC50) for each item in this list.
1. Cc1ccc(Oc2cccc(C(=O)Nc3nc(C)cs3)c2)cc1
2. Cc1csc(NC(=O)c2cccc(Oc3ccc(F)cc3)c2)n1

1: 3.81; 2: 3.62

Hi team, please reply with log10(EC50) for each item in this list.
1. Cc1csc(NC(=O)c2cc(Oc3cccc(S(C)(=O)=O)c3)cc(OC(C)C)c2)n1
2. Cc1csc(NC(=O)c2cc(Oc3ccccc3)cc(Oc3ccc(S(C)(=O)=O)cc3)c2)n1
3. Cc1csc(NC(=O)c2cccc(Oc3ccccc3)c2)n1
4. CCOc1ccccc1Oc1cccc(C(=O)Nc2nc(C)cs2)c1
5. Cc1csc(NC(=O)c2cccc(Oc3cccc(F)c3)c2)n1
6. Cc1csc(NC(=O)c2cccc(Oc3ccc(S(C)(=O)=O)cc3)c2)n1

1: 1.95; 2: 2.54; 3: 2.90; 4: 3.28; 5: 3.34; 6: 3.53

Hi team, please reply with log10(EC50) for each item in this list.
1. Cc1csc(NC(=O)c2cccc(Oc3ccccc3C)c2)n1
2. Cc1csc(NC(=O)c2cc(Oc3ccccc3)cc(Oc3cccc(S(C)(=O)=O)c3)c2)n1

1. 2.91
2. 2.97
